assay: soluble on expression in E. coli; label from the status in PepcDB or PDB records
ENDPOINT: soluble on expression in E. coli

INSERT INTO measurements (chain, endpoint, result) VALUES
  ('MSERPDLVDPLPEDEPLPGENIPDTPEGDDPLDPDTQNEVEDPRR', 'soluble on expression in E. coli', 'not soluble'),
  ('MAHHHHHHMRFVFRRLLPASTAAVAAPPSLLSMRGAPSFVHPPAEEAIGKDVRATPANWVTAYVLPEVITEQEEKTLLDFSEPWFERLSYNDGHMDGLIHHYKEFYRSYAAITQAAETGSDAGLNMPHANLEVDLPLVSEALARAHDLAQTYLPCIPIDDRVHFLRLAGSGFIRAHVDESRNSTGIVAGLCLNAGRVMTLTHPAYPGERVELMLAPRCLYILIGRARYDWAHSVDWVGDDDEHIRRIQKSLAVEGTPIRFDGAETPYRRSDRTAIIFRGVSPMTLLVRRMRQRG', 'soluble on expression in E. coli', 'not soluble');

---

test: soluble on expression in E. coli; label from the status in PepcDB or PDB records
ENDPOINT: soluble on expression in E. coli

INSERT INTO assay_data (chain, endpoint, result) VALUES
  ('MGSDKIHHHHHHMRLLDLYLTLRLALSTAVHTLAGRVKGRSYVPHPRTMLFIEPTSHCNLECSFCTYRLDRHPRLTLDMERFEDYVAQARAMGFADMVLTPINGDVFMDRTILDKLRLLDRLKDGPGIILYTNLIGASAEQLGEILALARLKMFQVSIYGHDFETFRRITGRGQVQFRRLLANLETIADLVAQGVVPQALSICVRTERHYRLEDEASGELHVLLRRLISLGIPVSVQSCLDDWGGLVAETDLDGLDMPLIRGRLIPKNGACIEPFYNVQILADGRVNACACRSVGEDLIIGDLRQDDLKTILSARNPAYTGLIERQQKGDFPQTCRGCSFYRSIYDRRIRNASPLGHMSLEQFHTFLSRE', 'soluble on expression in E. coli', 'not soluble'),
  ('MAKKGPKRHLKRLAAPVRWELPRKIHKFTVRPLPGAHPMSESLPLLLIVRDILKYADNAREAKKIIKMGKVLVDGRVRKEEKLPVGLMDVVSLPDANENYRVLFDRKGRIKLKPTENPDVKLCKIKNKTVIKGGHIQLNLHDGRNIVIKVSDPTKAEEDVYKTGDTLLISIPEQEIKAHIPFEVGKLAYITGGKHVGDFAKIVEIERRGIYPDIVTLENMDGEKFKTVKDYVFVVGDEEPIIKLLEHHHHHH', 'soluble on expression in E. coli', 'soluble'),
  ('MGSDKIHHHHHHMAAVALDQYLASVLKSSASDKNEIKLEAGNPDFDLFTIYLENHNTGIHRYRMDVSTILYVAKGTVTIKSAEKVINMRTGNVLLLTEGCKYEVSGQNDDTVLAKLKFAPGFEYRKYFNDFSYKGNRENKIIEQISDSLENEHVLWLKNNQITSASQVMQHIIGGYLDDELFAKALIQAELTAMLIISIRTQRMATPTNLDKTKFEKKSLDNYIDNHFADISLADAAKYFGFNPNYFSNMVKAKTGKSFVDHVGERRMQEARELLAQPDISLKEIISRVGYSSKSFFYKKFNQYYNMTPAAMRKELFRQANINLR', 'soluble on expression in E. coli', 'not soluble'),
  ('MGSDKIHHHHHHENLYFQGMQVIKQKLTATCAQLTGYLHQPDTNAHQTNLPAIIIVPGGSYTHIPVAQAESLAMAFAGHGYQAFYLEYTLLTDQQPLGLAPVLDLGRAVNLLRQHAAEWHIDPQQITPAGFSVGGHIVALYNDYWATRVATELNVTPAMLKPNNVVLGYPVISPLLGFPKDDATLATWTPTPNELAADQHVNSDNQPTFIWTTADDPIVPATNTLAYATALATAKIPYELHVFKHGPHGLALANAQTAWKPDANQPHVAHWLTLALEWLADNR', 'soluble on expression in E. coli', 'soluble');

Exam item: Reported soluble on expression in E. coli, sequence `MWPLALVIASLTLALSGGVSQESSKVLNTNGTSGFLPGGYTCFPHSQPWQAALLVQGRLLCGGVLVHPKWVLTAAHCLKEGLKVYLGKHALGRVEAGEQVREVVHSIPHPEYRRSPTHLNHDHDIMLLELQSPVQLTGYIQTLPLSHNNRLTPGTTCRVSGWGTTTSPQVNYPKTLQCANIQLRSDEECRQVYPGKITDNMLCAGTKEGGKDSCEGDSGGPLVCNRTLYGIVSWGDFPCGQPDRPGVYTRVSRYVLWIRETIRKYETQQQKWLKGPQ` : ____
Marked response: soluble

---

experiment: soluble on expression in E. coli; label from the status in PepcDB or PDB records
ENDPOINT: soluble on expression in E. coli

INSERT INTO results (chain, endpoint, result) VALUES
  ('MKQLAISFCIILPLACFWVLNAEDAKEAPEIREANSTVFRQKRQFGCPSNCYSSCSSSSQCQRYSVASVCVQGCCCPGNNNLDTACSGGPAVAACLGGLCGQGFFCSSNNYCCRCQSGNSTGPCVNQVCPTGFMCNTNNYCCPLGSGGVLGSCVNGVCPTGYTCGAGNLCYLSSGK', 'soluble on expression in E. coli', 'not soluble'),
  ('LTEKQKRFADEYIKCGNATEAARLAGYSSKTANRIATENLSKPVIKGYIDKVLSELEEKRVMGYTEAMQLFTEIARGEMEEEVIVSNGDGFSVVTKSADINQRVSALKEIVKRHVAGGRDKLQEELIQAQIDKLRADT', 'soluble on expression in E. coli', 'not soluble'),
  ('MGSDKIHHHHHHMTILSDVKALGQQIWLDNLSRSLVQSGELAQMLKQGVCGVTSNPAIFQKAFAGDALYADEVAALKRQNLSPKQRYETMAVADVRAACDVCLAEHESTGGKTGFVSLEVSPELAKDAQGTVEEARRLHAAIARKNAMIKVPATDAGIDALETLVSDGISVNLTLLFSRAQTLKAYAAYARGIAKRLAAGQSVAHIQVVASFFISRVDSALDATLPDRLKGKTAIALAKAAYQDWEQYFTAPEFAALEAQGANRVQLLWASTGVKNPAYPDTLYVDSLIGVHTVNTVPDATLKAFIDHGTAKATLTESADEARARLAEIAALGIDVETLAARLQEDGLKQFEEAFEKLLAPLV', 'soluble on expression in E. coli', 'not soluble');

---

test: soluble on expression in E. coli; label from the status in PepcDB or PDB records
ENDPOINT: soluble on expression in E. coli

Illustrative cases are given below, each with its answer.
INSERT INTO assay_data (chain, endpoint, result) VALUES
  ('MQDVFIIGSRGLPAKYGGFETFVEELISHQSSKNIRYHVACLSDTKHKVHFDYKGADCFYLNPPKLGPARVIAYDMMAITYALSYSDQHQIQNPIFYVLGNTVGAFIAPFVKQIHNRGGRFFINPDGLEWKRSKWSRPVQAYLKFSEKQMTRQADLVISDNIGIDRYLKQVYPWSKTCFIAYGTQTQPSRLATADSKVRAYFQTFDIREKDYYLILGRFVPENNYETAIKEFMASSTKRDLVIICNHEGNAYFKQLLAETECDKDPRIKFVGTLYDKELLAYIREQAYAYIHGHEVGGTNPGLLEALAHTNLNLVLGVDFNQSVAKSAALYWTKQKGQLAELINQVDAGFDSDHLGKEAKAIIQEHYTWEKIVGEYEALFLNEH', 'soluble on expression in E. coli', 'not soluble'),
  ('MTGTVYKLFGNRLLNARNQLDKNLLEMAMQMVYGKDMVTKSGDILIDIQLNKDGSLQSKHYTLDVGEVINSYNIDPLCECFKY', 'soluble on expression in E. coli', 'not soluble'),
  ('MKIKYFFIPLFSSAILFSACSSIQSDLRNLIKETTGKDFDVSKLIKTSEGRKNLINSLKKSYESKPDETASLLLIAWKQSAEMGEIGFDDIKEGGIYTRDNDPFKLEQKVEYFNMEYKILVMF', 'soluble on expression in E. coli', 'soluble'),
  ('FAKQKKESVISAISTVNPQELKVPSSNLTTALAGRMSGLIAFQTTGEPGKDNAQFFVRGATTFGYKKDPLILIDNIELSTDDLARLNVDDIAQFSIMKDATATALYGARGANGVILVTTKQGVAG', 'soluble on expression in E. coli', 'not soluble'),
  ('MSLNNTKQPVVILVGPTAVGKTNLSIQLAKSLNAEIISGDSMQIYKGMDIGTAKITEQEMEGVPHHLIDILDPQDSFSTADYQSLVRNKISEIANRGKLPMIDGGTGLYIQSELYDYTFTEEANDPVFRESMQMAAEREGADFLHAKLAAADPEAAAAIHPNNTRRVIRALEILHTSGKTMSQHLKEQKRELLYNAVLIGLTMDRDTLYERINQRVDLMMQSGLLPEVKRLYDKNVRDCQSIQAIGYKELYAYFDGFVTLSDAVEQLKQNSRRYAKRQLTWFRNKMQVTWFDMTPPVDMELKKKEIFTHIAGKLELEGHHHHHH', 'soluble on expression in E. coli', 'soluble');

Exam item: Tell me the measured soluble on expression in E. coli of `MKHWRPFRFPPLIDGAPLAPDAAAEVQASAADGFRQGMDAGYREGFDSGEAAGRDAGYQAGLEQGRAEGAAAARAETLAGLETLGAPLAAAIEQLNKLCRDYQAAQRDEVVDLVAKVARQVIRCELALKPVQILDLVEETLAALPQGAHSQGEVEVLLNPEECQRIRELAPERAAQWKLSADPSLAPGECRLRGAEFEADAGCQQRLERCVDSLREQLAAEEG` , please.
Marked response: not soluble

Exam item: Quick one: soluble on expression in E. coli for `MSLSLWWKRAKARMTESVTYYQEPAFEKLLPDPDPTFERPYTLCLSLDDLLIHSEWTREHGWRIAKRPGVDYFIRYLSQYYELVLFTTTPYATGEPVMRKLDPFRLILWPLYREATKFEDGEIVKDLSYLNRDLSKVIIIDTKAKHVRNQPDNAIILDPWKGDKDDKNLVNLIPFLEYIHTMQYSDVRKVIKSFDGKDIPTEGHHHHHH` ?
Marked response: not soluble
